Where these numbers come from: patent US10253037B2

Known HIV 1 infection Protection of cells, % of a selection of compounds
# Test system: HIV-1899A strain
# Protocol Summary: Antiviral effect in MT-4 cells infected with HIV-1 (MTT, cytopathic effect, syncytium)
# Assay type: cell-based
# Assay Conditions: 30 μg/ml, 0.01 TCD50/cell, 5 days
Use % as the unit, but write only the number.

compound Cc1nnc(C(=O)NC(C)(C)c2nc(C(=O)NCc3ccc(F)cc3)c(O)c(=O)n2C)o1 [Raltegravir, reference compound] , HIV 1 infection Protection of cells, % observed: 100

compound O=[N+]([O-])c1ccc(C2c3c(O)nc(Cl)nc3Oc3nc(Cl)nc(O)c32)cc1 , HIV 1 infection Protection of cells, % observed: 90

compound Oc1nc(Cl)nc2c1C(c1ccccc1)c1c(O)nc(Cl)nc1O2 , HIV 1 infection Protection of cells, % observed: 10.7

compound O=[N+]([O-])c1ccc(C2c3c(O)nc(S)nc3Oc3nc(Cl)nc(O)c32)cc1 (stereo not shown) , HIV 1 infection Protection of cells, % observed: 0
